Biological target: α-Glucosidase (Saccharomyces cerevisiae, EC3.2.1.20) (Saccharomyces cerevisiae, UniProt P53341)
Sequence (P53341 whole entry): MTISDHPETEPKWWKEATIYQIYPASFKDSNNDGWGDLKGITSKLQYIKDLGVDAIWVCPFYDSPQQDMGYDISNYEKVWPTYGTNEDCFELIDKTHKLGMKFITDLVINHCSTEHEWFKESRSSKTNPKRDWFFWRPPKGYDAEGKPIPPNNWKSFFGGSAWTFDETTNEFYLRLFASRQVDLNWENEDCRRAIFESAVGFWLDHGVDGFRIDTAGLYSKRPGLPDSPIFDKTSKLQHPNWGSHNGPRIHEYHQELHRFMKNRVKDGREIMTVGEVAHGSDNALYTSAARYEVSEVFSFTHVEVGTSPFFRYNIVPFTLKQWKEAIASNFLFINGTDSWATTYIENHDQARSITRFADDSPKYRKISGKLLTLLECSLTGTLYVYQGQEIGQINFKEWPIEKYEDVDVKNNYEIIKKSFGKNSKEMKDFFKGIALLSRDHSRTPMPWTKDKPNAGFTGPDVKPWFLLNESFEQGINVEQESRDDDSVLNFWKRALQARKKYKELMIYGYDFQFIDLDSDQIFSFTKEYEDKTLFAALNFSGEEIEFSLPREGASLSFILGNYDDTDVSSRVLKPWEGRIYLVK
assay_endpoint: IC50 (µM)
Only the number, expressed in µM, is required.

Some entries whose results are on file:
In [3]: df
Out[3]:
                               entry_smiles  reported_value
0  N#CCC(=O)NN=Cc1ccc(OCc2cn(Cc3ccccc3)nn2)cc1             271
1  COc1cc(C=NNC(=O)CC#N)ccc1OCc1cn(Cc2ccccc2F)nn1             1.5
2  COc1cc(C=NNC(=O)CC#N)ccc1OCc1cn(Cc2ccccc2C)nn1              28
3  COc1cc(C=NNC(=O)CC#N)ccc1OCc1cn(Cc2ccc(F)cc2)nn1            9.73
4  COc1cc(C=NNC(=O)CC#N)ccc1OCc1cn(Cc2ccc(C)cc2)nn1            22.8

Data request: Which IC50 reading was recorded for the compound `COc1cc(C=NNC(=O)CC#N)ccc1OCc1cn(Cc2ccccc2Cl)nn1` ?
Data returned: 14

Data request: # lookup: IC50 of `N#CCC(=O)NN=Cc1ccc(OCc2cn(Cc3ccccc3F)nn2)cc1`
Data returned: 45.9

====

Quick record of pKi values for UniProt P53341.
As a rule, pKi stands for the negative log10 of the concentration, concentration in M.

Sample records with pKi:
>>> df
                                   molecule  reported_value
0  N#CCC(=O)NN=Cc1ccc(OCc2cn(Cc3ccc(Cl)cc3)nn2)cc1 [Compound 9l]            4.07
1  COc1cc(C=NNC(=O)CC#N)ccc1OCc1cn(Cc2ccc(Cl)cc2)nn1 [Compound 9e]            6.62
2  COc1cc(C=NNC(=O)CC#N)ccc1OCc1cn(Cc2ccccc2F)nn1 [Compound 9b]            6.37

Data request: Tell me reported pKi for N#CCC(=O)NN=Cc1ccc(OCc2cn(Cc3ccccc3F)nn2)cc1 [Compound 9i] , tested with UniProt P53341.
Data returned: 4.12

====

Target: α-Glucosidase (Saccharomyces cerevisiae, EC3.2.1.20) (Saccharomyces cerevisiae, UniProt P53341)
Construct: purchased Sigma-Aldrich
Experiment: In vitro α-glucosidase inhibition assay
Assay type: biochemical
assay_endpoint: IC50

In [3]: df
Out[3]:
                               entry_smiles  reported_value
0  N#CCC(=O)NN=Cc1ccc(OCc2cn(Cc3ccc(F)cc3)nn2)cc1         56.6 µM
1  Cc1ccc(Cn2cc(COc3ccc(C=NNC(=O)CC#N)cc3)nn2)cc1         82.4 µM
2  COc1cc(C=NNC(=O)CC#N)ccc1OCc1cn(Cc2ccccc2)nn1        > 750 µM
3  Cc1ccccc1Cn1cc(COc2ccc(C=NNC(=O)CC#N)cc2)nn1         11.3 µM
4  COc1cc(C=NNC(=O)CC#N)ccc1OCc1cn(Cc2ccc(Cl)cc2)nn1            1 µM

Data request: GET /values?readout=IC50&item= `N#CCC(=O)NN=Cc1ccc(OCc2cn(Cc3ccc(Cl)cc3)nn2)cc1`
Data returned: 21.7 µM

Data request: # get_value(readout='IC50', item= `N#CCC(=O)NN=Cc1ccc(OCc2cn(Cc3ccccc3Cl)nn2)cc1` )
Data returned: 74.7 µM

These entries and their values trace back to paper PMC9125976.
